Attribution: ChEMBL document CHEMBL3988442

biological target: Aspartate--tRNA(Asp/Asn) ligase (Mycobacterium tuberculosis (strain ATCC 25618 / H37Rv)) (UniProt P9WFW3); assay: Assay for Asp RNA synthetase-1 from Mycobacterium tuberculosis; format: functional; design: scale not given: in the data most compounds retested in dose-response had high values; conditions: 30 µM
Sequence (P9WFW3 whole entry): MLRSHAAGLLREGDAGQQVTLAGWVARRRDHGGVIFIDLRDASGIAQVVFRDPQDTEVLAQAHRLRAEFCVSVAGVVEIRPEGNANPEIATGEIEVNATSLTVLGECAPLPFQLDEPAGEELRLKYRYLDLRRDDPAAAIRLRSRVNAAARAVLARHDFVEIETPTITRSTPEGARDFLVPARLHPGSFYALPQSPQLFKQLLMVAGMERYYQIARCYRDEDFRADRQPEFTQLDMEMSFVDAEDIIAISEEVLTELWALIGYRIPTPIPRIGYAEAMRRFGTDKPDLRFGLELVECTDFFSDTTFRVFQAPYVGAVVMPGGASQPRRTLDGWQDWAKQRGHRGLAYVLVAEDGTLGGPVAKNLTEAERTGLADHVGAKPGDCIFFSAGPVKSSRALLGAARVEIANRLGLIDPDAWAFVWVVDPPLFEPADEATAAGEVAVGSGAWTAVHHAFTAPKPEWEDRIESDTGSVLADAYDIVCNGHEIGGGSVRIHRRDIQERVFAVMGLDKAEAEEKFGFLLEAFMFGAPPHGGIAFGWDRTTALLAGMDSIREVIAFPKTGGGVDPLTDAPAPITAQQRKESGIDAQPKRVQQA
Attribute Measured: Percent Effect

Worked cases, answers included:
Compound	Percent Effect
Nc1nc(CN2CCOC(Cn3cncn3)C2)nc2ccccc12 (stereo unspecified)	-1.84%
O=C1CC(N(C(=O)c2ccc3[nH]c4c(c3c2)CCCC4)C2CC2)C(=O)N1 (stereo unspecified)	1.2%
Cc1ncccc1Oc1nccnc1C1CCN(C(C)C)CC1	-4.09%
Cc1cc(NC(=O)CCN2CCCC2Cn2cncn2)no1 (stereo unspecified)	-2.02%

Need Percent Effect for each of these compounds.
1. Cc1ccc(CN2CCN(CC3CC3)[C@@H]3CS(=O)(=O)C[C@@H]32)cc1C
2. CC(C)CN1CCCn2nc(CNC(=O)c3cccnc3O)cc2C1

["-3.05%", "-2.56%"]
